These entries and their values trace back to PubChem BioAssay.

procedure details: blood-stage malaria parasite viability loss – strain 3D7, DAPI fluorescence, 100 nL, primary screen (AID 1184);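 note: parasites grown inside human red blood cells in medium with human serum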
experimental setup: P. falciparum 3D7 growth, 3 d, higher = more signal
measured attribute: z-score

compound: [N-]=[N+]=NCc1ccccc1[C@H]1OC(c2ccc(OCCCO)cc2)=N[C@@]1(Cc1ccccc1)C(=O)N1CCCCC1
measured attribute: z-score
observed: -2.4

compound: COCC(=C=CC[C@@H](O)c1ccc(OCCO)cc1)C[C@@H](O)c1ccccn1
measured attribute: z-score
observed: 0.797

compound: C=CC[C@]1(C(=O)N2CCOCC2)N=C(c2ccc(OCCCO)cc2)O[C@H]1c1ccccc1N=[N+]=[N-]
measured attribute: z-score
observed: -1.92

compound: O=C(CS)NCCCCCNC(=O)[C@H]1C[C@H]2C(=O)NCC(=O)N2[C@H]1c1ccc(O)cc1
measured attribute: z-score
observed: 0.201

compound: CO[C@H]1O[C@H](CO)[C@@H](OC(=O)Nc2cccc(F)c2)[C@H](OC(=O)Nc2ccccc2)[C@H]1OC(=O)Nc1ccccc1
measured attribute: z-score
observed: -2.38

compound: O=C1NC(=O)C2C1C=CC(C(O)C=Cc1ccc([N+](=O)[O-])cc1)N2Nc1ccc(Cl)cc1Cl (stereo not given)
measured attribute: z-score
observed: -0.143

compound: CC(CO)N1C(=O)[C@@H]2C3C(=O)OCCC/C=C\[C@H]3OC23C=CCN(CCN2CCOCC2)C(=O)[C@@H]13 (stereo not given in full)
measured attribute: z-score
observed: 0.339

compound: COCCCNC(=O)[C@@H]1c2ccccc2C(=O)N(Cc2ccccc2)[C@H]1c1ccc(CO)cc1
measured attribute: z-score
observed: 0.207

compound: CCOC(=O)C1=CC[C@@H](c2ccccc2)N(S(=O)(=O)c2ccc(C)cc2)[C@H]1c1ccc(CC)cc1
measured attribute: z-score
observed: -1.89

compound: O=C1O[C@H](c2ccccc2)[C@H](c2ccccc2)N2[C@H]1[C@@H](C(=O)N1CCN(c3ncccn3)CC1)[C@]1(C(=O)Nc3ccc(C#CC4=CCCCC4)cc31)[C@H]2c1ccccc1OCCO
measured attribute: z-score
observed: -2.09

compound: O=C1O[C@@H](c2ccccc2)[C@@H](c2ccccc2)N2[C@@H](c3ccc(OCCO)cc3)[C@]3(C(=O)Nc4ccc(C#CC5=CCCCC5)cc43)[C@@H](C(=O)N3CCCCCCC3)[C@H]12
measured attribute: z-score
observed: -2.22

compound: CN1C(=O)C2C=CC(C(O)C=Cc3ccc([N+](=O)[O-])cc3)N(Nc3ccccc3)C2C1=O (stereo not given)
measured attribute: z-score
observed: 0.431

compound: COC(=O)C(CC#Cc1ccc2c(c1)[C@]1(C(=O)N2)[C@H](c2ccccc2OCCO)N2[C@H](c3ccccc3)[C@H](c3ccccc3)OC(=O)[C@H]2[C@@H]1C(N)=O)C(=O)OC
measured attribute: z-score
observed: -2.24

compound: C=C(CCCC)C(=O)CC[C@H](OC(=O)c1cccnc1)c1ccc(OCCO)cc1
measured attribute: z-score
observed: -2.96

compound: COC(=O)[C@@]1(Cc2ccccc2)[C@H]2c3cc(C(=O)N(C)C)n(Cc4ccc(OC)c(OC)c4)c3C[C@H]2CN1C(=O)c1ccccc1
measured attribute: z-score
observed: -1.44

###

Recorded measurements of composite z-score, one per entry
procedure details: COS7 lysate on small-molecule microarray, probe aHis, 635 nm (AID 1123);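 note: z-score combines 667nm fluorescence intensity with signal-to-noise per printed compound spot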
experimental setup: COS7 cell lysate, fluorescence, higher = more signal
measured attribute: composite z-score

molecule: C=CCC(OC(C)=O)[C@@H]1[C@@H](N(Cc2cc3ccccc3o2)C(=O)Cc2ccc(OC)cc2)c2cc(OCCCO)ccc2N1C(=O)c1ccc2ccccc2c1 (some centres not stated)
observed: 0.13
//
molecule: CCOC(=O)[C@H]1C/C=C/C[C@H](C(=O)OCC)C(=O)O[C@H]2[C@@H](OC)O[C@H](CO)[C@@H](OC(=O)c3ccc(Br)cc3)[C@@H]2OC1=O
observed: 0.306
//
molecule: C=CC[C@]12N=C(c3ccc(OCCCO)cc3)O[C@H]1c1ccccc1N(CCS(=O)(=O)c1ccccc1)C2=O
observed: 1.12
//
molecule: O=c1cccc(-c2ccccc2Cl)o1
observed: -0.011
//
molecule: O=C(NCc1ccccc1)[C@@H]1c2ccccc2C(=O)N(C2Cc3ccccc3C2)[C@H]1c1ccc(CO)cc1
observed: 1.35
//
molecule: COc1cc(CO)cc(I)c1O[C@H]1C=C(C(=O)NCCO)C[C@@H](N(C(=O)c2cc3ccccc3oc2=O)C2CCCCCC2)[C@@H]1O
observed: -0.149
//
molecule: COCCOC(=O)N1C(=O)[C@@]2(c3cc(C#Cc4ccc(OC)cc4)ccc31)[C@H](c1ccc(O)cc1)N1[C@H](c3ccccc3)[C@H](c3ccccc3)OC(=O)[C@H]1[C@@H]2C(=O)Nc1nc2ccccc2s1
observed: 1.54
